# tested_target: Thymidylate synthase (Mus musculus, UniProt P07607)
# Sequence (P07607 whole entry): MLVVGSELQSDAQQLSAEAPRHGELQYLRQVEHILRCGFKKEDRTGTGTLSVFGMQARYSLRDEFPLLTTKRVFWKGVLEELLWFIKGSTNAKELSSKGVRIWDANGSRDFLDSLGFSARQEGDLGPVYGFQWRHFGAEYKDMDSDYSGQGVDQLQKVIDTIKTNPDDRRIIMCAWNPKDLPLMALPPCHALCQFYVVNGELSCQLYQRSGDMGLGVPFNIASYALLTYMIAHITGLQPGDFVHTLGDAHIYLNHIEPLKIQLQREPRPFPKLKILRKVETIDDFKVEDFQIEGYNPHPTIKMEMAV
# method_description: Compound was tested for the inhibition of recombinant mouse thymidylate synthase, competitive with 5,10-methylenetetrahydrofolate as variable substrate
readout_label: pKi
The quantity pKi is defined as the negative base-10 logarithm of the molar concentration.

Note to self: pKi of O=C(O)CCC(NC(=O)c1ccc(NCc2ccc3nnnc(O)c3c2)cc1)C(=O)O (stereo unspecified) with Thymidylate synthase (Mus musculus, UniProt P07607) was 5.64
